Attribution: the supplement of paper PMC13380429

tested on: HepG2; test: cell viability relative to DMSO; higher = less toxic; conditions: 72 h; 10 nM
measured.parameter: cell viability (%)
// units = %; emit number, no label

Study these solved cases before continuing.
{"compound": "O=C(N[C@H]1CN2CCC1CC2)c1ccc(Cl)cc1", "target.or.test.system": "HepG2", "measured.parameter": "cell viability", "unit.label": "%", "observed": 92.2}
{"compound": "CCCCNc1ncc(-c2ccc(CN3CCOCC3)cn2)c(N[C@H]2CC[C@H](O)CC2)n1", "target.or.test.system": "HepG2", "measured.parameter": "cell viability", "unit.label": "%", "observed": 102}
{"compound": "Cc1cnc(-c2ccccc2C(C)C)nc1NCc1ccc(-n2ccnn2)cc1", "target.or.test.system": "HepG2", "measured.parameter": "cell viability", "unit.label": "%", "observed": 94.2}

Q: Which cell viability reading was recorded for the compound N[C@@H](Cc1ccc(Cl)cc1)C(=O)O (racemic) [fenclonine-(+/-)] ?
Result: 107

Q: Which cell viability reading was recorded for the compound O=C(Nc1ccc(S(=O)(=O)Nc2nccs2)cc1)C(c1ccccc1)c1ccccc1 ?
Result: 105

Q: Which cell viability reading was recorded for the compound N[C@H](Cc1c[nH]cn1)C(=O)O ?
Result: 98.7

Q: Which cell viability reading was recorded for the compound CCCCCCCCCCCCOCCOCCOCCOCCOCCOCCOCCOCCOCCO ?
Result: 98.5

Q: Which cell viability reading was recorded for the compound NS(=O)(=O)NCCNc1nonc1/C(=N/O)Nc1ccc(F)c(Br)c1 ?
Result: 96

Q: Which cell viability reading was recorded for the compound O=C1c2cccc3c2[C@H](CCC3)CN1[C@@H]1CN2CCC1CC2 ?
Result: 90.2

Q: Which cell viability reading was recorded for the compound O=C1NC(=O)C(c2ccccc2)(c2ccccc2)N1 ?
Result: 94.8

====

Each record here notes measured cell viability.
test system: Vero E6; assay: cell viability relative to DMSO; higher = less toxic; conditions: 72 h; 10 nM
// units = %; emit number, no label

Study these solved cases before continuing.
{"chemical.string": "CCC(=O)NC[C@H](Cc1ccc(OCCc2nc(-c3ccccc3)oc2C)cc1)N/C(C)=C\\C(=O)c1ccc(C(F)(F)F)cc1", "target.or.test.system": "Vero E6", "cell viability / %": 97.6}
{"chemical.string": "O=Nc1ccc(O)c2ncccc12", "target.or.test.system": "Vero E6", "cell viability / %": 102}
{"chemical.string": "CC(C)(C)c1cc(C(=O)/C(C#N)=N/Nc2cccc(Cl)c2)no1", "target.or.test.system": "Vero E6", "cell viability / %": 94.2}
{"chemical.string": "O=C(Cc1cccc(OC(F)(F)F)c1)Nc1ccc(CCCCc2nnc(NC(=O)Cc3ccccn3)s2)nn1", "target.or.test.system": "Vero E6", "cell viability / %": 93.9}

Now consider a different compound.
Q: Which cell viability reading was recorded for the compound Cc1ccc2nc(NCCN)c3ncc(C)n3c2c1 ?
Result: 92.6

====

test system: Calu-3; test: cell viability relative to DMSO; higher = less toxic; conditions: 72 h; 1 nM
measured.parameter: cell viability (%)
// units = %; emit number, no label

Study these solved cases before continuing.
{"molecule": "CCCCCCCCCCCCCCCC(=O)O[C@@H]1[C@@H](O)[C@@H](O)[C@@H]([C@H](NC(=O)[C@@H]2C[C@@H](CCC)CN2C)[C@H](C)Cl)O[C@@H]1SC [clindamycin-palmitate]", "cell viability (%)": 99.9}
{"molecule": "C[C@]12C[C@H](O)[C@H]3[C@@H](CCC4=CC(=O)CC[C@@]43C)[C@@H]1CC[C@@H]2C(=O)CO", "cell viability (%)": 101}

Q: Which cell viability reading was recorded for the molecule O=C([O-])C(O)[C@H](O)[C@@H](O)[C@H](O)[C@H](O)CO.O=C([O-])C(O)[C@H](O)[C@@H](O)[C@H](O)[C@H](O)CO.[Ca+2] (some centres undefined) [calcium-gluceptate] ?
Result: 138

Q: Which cell viability reading was recorded for the molecule C[N+](C)(C)CCCCCNCC12CC3CC(CC(C3)C1)C2 ?
Result: 91.1
